- assayed.target: JAK1 (Homo sapiens, UniProt P23458)
- Construct: The kinase domain of humanJAK1 was amplified from U937mRNA; His tag (from pFastBac HTb vector; nickel chelate purification) (N); made in house; host or cells: baculovirus; virus made in Sf9, large-scale expression in High Five insect cells
- Sequence (P23458 875-1153 limits assumed): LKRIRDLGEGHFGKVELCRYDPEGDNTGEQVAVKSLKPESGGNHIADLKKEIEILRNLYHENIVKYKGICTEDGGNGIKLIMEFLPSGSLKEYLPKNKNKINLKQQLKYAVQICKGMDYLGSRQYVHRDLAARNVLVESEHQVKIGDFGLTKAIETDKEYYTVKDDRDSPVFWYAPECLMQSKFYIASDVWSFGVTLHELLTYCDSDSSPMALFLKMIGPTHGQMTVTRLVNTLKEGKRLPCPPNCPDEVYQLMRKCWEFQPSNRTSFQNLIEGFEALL
- measurement.notes: JAK1 kinase domain capture-based ELISA kinase assay
- Format: biochemical
- condition.parameters: Table 6; inhibit 50% of activity at 50 μM
metric.name: IC50

Past entries and their recorded results:
Clc1ccccc1-c1cn2ccnc2c(NCc2ccccn2)n1	> 50 µM
Clc1ccccc1-c1cn2ccnc2c(Nc2ccc3[nH]ccc3c2)n1	< 50 µM
Cc1ccc(S(=O)(=O)Nc2ccc(Nc3nc(-c4cccc(C(=O)NCCN(C)C)c4)cn4ccnc34)cc2)cc1	< 50 µM

Task: Please report the recorded IC50 for CC(C)[C@H](CO)Nc1nc(-c2ccc(C(=O)O)cc2)cn2ccnc12 .
Result: > 50 µM

Task: IC50 lookup needed for CN(C)C(=O)COc1cccc(Nc2nc(-c3ccccc3Cl)cn3ccnc23)c1 , thanks.
Result: < 50 µM

Values were extracted from patent US20060069084A1.
